These entries and their values trace back to PubChem BioAssay (NCI).

Listed here are compounds together with their documented TGI.
System: HL-60(TB) leukemia
Test: NCI tumour cell line growth inhibition, 48 h

Compound	TGI
O=c1ccs[nH]1	25 µM
COc1cccc(/C=C2\CCCc3ccccc3C2=O)c1	35 µM
CC(C)(C)OCC1NC(=O)[C@@H]2Cc3c([nH]c4ccccc34)C(c3ccccc3)N2C1=O (stereo partly specified)	> 50 µM
Cc1cc(O)cc2c1[C@]1(C)CCC3C(C)(C)CCC[C@]3(C)[C@H]1C2 (stereo partly specified)	> 100 µM
O=C1O[C@H](c2ccccc2)[C@@H]2CC3(CCN12)OCCO3	> 100 µM
CC1=C[C@]2(O)C(=O)[C@H](C)C[C@H]3[C@@H](CC[C@@](C)(O)/C=C\2C1=O)C3(C)C	> 100 µM
O=C1O/C(=C\c2ccccc2)N(c2ccccc2)C1=O	> 100 µM
COc1ccc(C2SCC(=O)N2NC(=O)c2ccncc2)cc1F (stereo unspecified)	> 100 µM
O=C(CCc1nnc2s/c(=C\c3ccc(Cl)c(Cl)c3)c(=O)n12)Nc1ccc(Cl)c(Cl)c1	64 µM
N#CC1C(=O)SC2c3ccccc3C(=O)c3ccccc3C12 (stereo unspecified)	> 10 µM
COC(=O)CC[C@]1(C)O[C@H]2[C@H]([C@@H](C)CCCC(C)=O)OC(=O)[C@@H]2C[C@H]1O	> 100 µM

====

Test system: OVCAR-3 ovarian
Test: NCI tumour cell line growth inhibition, 48 h
Collected TGI values appear next to each entry.
Measured metric: TGI (µM)

Molecule	Reported relation	Numeric readout
COc1ccc(-c2cc(-c3ccc(Cl)cc3)nc(SCCCC(=O)NO)n2)cc1	=	2.11
Nc1c2c(c(O)c3c1=C(CO)C=N3)=NCCS2	=	0.35
O=C(CCc1nnc2s/c(=C\c3ccc(Cl)c(Cl)c3)c(=O)n12)Nc1ccc(Cl)c(Cl)c1	>	100
CC1=C[C@]2(O)C(=O)[C@H](C)C[C@H]3[C@@H](CC[C@@](C)(O)/C=C\2C1=O)C3(C)C	=	38.1
Cc1ccc(NC2=C(Cl)C(=O)N(Cc3ccc(Cl)cc3)C2=O)cc1O	=	38.5
CC(NO)/C(=N/O)c1ccco1 (stereo not given)	>	10
C#CCOCn1cnc2c(Sc3c([N+](=O)[O-])ncn3C)ncnc21	>	100
Cc1c(S(=O)(=O)O)ccc(N=Nc2c(O)c(C(=O)O)cc3ccccc23)c1Cl	>	100
O=[N+]([O-])c1ccc(N=Nc2c(O)ccc3ccccc23)c([N+](=O)[O-])c1	>	100
COc1cc(/C=C2\N=C(c3ccccc3)N(c3nc4cc(C)c(C)cc4s3)C2=O)ccc1O	=	65.3

====

TGI values, listed per item
Tested on: SK-MEL-28 melanoma
Experiment: NCI tumour cell line growth inhibition, 48 h

Compound	TGI
Nc1c2c(c(O)c3c1=C(CO)C=N3)=NCCS2	0.804 µM
CC(O)c1cc2c(s1)C(=O)c1ccsc1C2=O (stereo not drawn)	0.0328 µM
O=C1NC(=O)C(c2ccccc2Cl)=C1Nc1cc(Cl)c(O)c(Cl)c1	> 25 µM
Cc1cc(C)c(S(=O)(=O)N2CCCN(S(=O)(=O)c3c(C)cc(C)cc3C)OCCCO2)c(C)c1	> 100 µM
N#Cc1ccc2c(c1)C(=O)c1c-2n(CCCCl)c(=O)c2cc([N+](=O)[O-])ccc12	> 100 µM
Nc1nc2c(c(=O)[nH]1)C(c1ccccc1)CC(=O)N2 (stereo not drawn)	> 100 µM
Oc1c(Cl)c(Cl)c(O)c(CCNc2ccc3ncccc3c2)c1Cl	54.6 µM
Cc1cc(=O)oc2c(C)c(O)ccc12	> 100 µM
Clc1nssc1=Nc1nonc1-c1ccccc1	> 100 µM
Cc1n[nH]c(=O)n1/N=C/c1ccc(F)cc1	> 100 µM
C#CC1(OC(C)=O)CCC2C3CC=C4C=C(OC(C)=O)CCC4(C)C3CCC21C (stereo not drawn)	53.6 µM
COc1cc(C2SCC(=O)N2c2ccc(-n3c(-c4ccccc4)nc4ccccc4c3=O)cc2)cc(OC)c1OC (stereo not drawn)	> 100 µM
Cn1nc(-c2ccccc2)c(C(=O)/C=C/c2ccc(Cl)cc2)c(N2CCCCC2)c1=O	14.3 µM
CS(=O)(=O)CCNCc1ccc(-c2ccc3ncnc(Nc4ccc(OCc5ccccc5)c(Br)c4)c3c2)o1	9.08 µM
COc1cc(-c2ccc(-c3ccc(C(=N)N)nc3)s2)cc(OC)c1OC	3.18 µM
CCCSc1ccc2[nH]c(/N=C/c3ccccc3)cc2c1	90.7 µM
O=C1c2ccccc2CN1c1ccc(OCCN2CCCCC2)cc1	> 10 µM
Cc1ccc2c(-c3ccnc(Nc4ccccc4)n3)c(-c3ccc(F)cc3)nn2n1	> 25 µM
CCN(CC)CCCNC(=O)C1COc2cc(-c3cc(=O)c4ccccc4o3)ccc2O1 (stereo not drawn)	40.8 µM
CC(=O)N1C/C(=C/c2ccc(Cl)cc2)C(=O)/C(=C/c2ccc(Cl)cc2)C1	3.2 µM
CCCC[C@H]1[C@@H](OCOc2ccccc2)COC(=O)N1[C@H](C)c1ccccc1	71.1 µM
CN1CC(=O)N(C)c2ncn(Cc3ccccc3)c2C1=O	> 100 µM
CCOC(=O)/C(=C\c1ccc(N(CCC#N)CCC#N)cc1)NC(=O)c1cc([N+](=O)[O-])ccc1Cl	> 100 µM
CCOC(=O)CCC(NC(=O)c1ccc(Oc2nc3ccccc3nc2-c2ccccc2)cc1)C(=O)OCC (stereo not drawn)	> 100 µM
O=[N+]([O-])c1ccc(N=Nc2c(O)ccc3ccccc23)c([N+](=O)[O-])c1	> 100 µM
C=C1C(C2(C)C(OC(C)=O)CC(=O)OC(C)(COC(C)=O)C2CC(=O)OC)C(OC=O)C(OC(=O)C(O)C(C)CC)C2(C)C(c3ccoc3)CC(=O)C12O (stereo not drawn)	> 100 µM
C=C(C)[C@@H]1CC[C@]2(C(=O)O)CC[C@]3(C)[C@H](CC[C@@H]4[C@@]5(C)CCC(NC(=O)c6cccc(OC(C)=O)c6OC(C)=O)C(C)(C)[C@@H]5CC[C@]43C)[C@@H]12 (stereo partly drawn)	3.03 µM
Cc1nc(C(N)=S)sc1C(=O)CC(=O)C(=O)Nc1ccccc1[N+](=O)[O-]	> 100 µM
CC1(C)CC2=C(Sc3ccccc3N2)C(=O)C1C(=O)C(=O)Nc1cccc([N+](=O)[O-])c1 (stereo not drawn)	> 100 µM
COc1ccc(/C=C2\CN(C)C/C(=C\c3ccc(OC)cc3)C2=O)cc1	> 100 µM
COC(=O)[C@]12CC[C@H]3CC[C@H]([C@H]31)[C@H](c1ccccc1)N2	52.2 µM
CC(C)(C)CC(C)(C)c1cc2c(O)c(c1)Cc1cc(C(C)(C)CC(C)(C)C)cc(c1O)Cc1cc(C(C)(C)CC(C)(C)C)cc(c1O)Cc1cc(C(C)(C)CC(C)(C)C)cc(c1O)Cc1cc(C(C)(C)CC(C)(C)C)cc(c1O)C2	> 100 µM
COc1cc(OC)c(SSCCCCS(=O)O)c(OC)c1	29.7 µM
COc1ccc(N2C(=O)[C@H]3[C@H]4CC(C(C)(C)C)CC[C@H]4c4c(n(C)c5ccccc45)[C@H]3C2=O)cc1 (stereo partly drawn)	> 100 µM
COc1ccc(S(=O)(=O)NC(CCC(=O)NN)C(=O)NN)cc1 (stereo not drawn)	> 100 µM
O=C(O)CCCSc1ccccc1	> 100 µM
O=C1/C(=C/c2ccc(OC(=O)c3ccccc3)cc2)CCC/C1=C\c1ccc(OC(=O)c2ccccc2)cc1	> 100 µM
COc1ccccc1C(O)(c1ccccc1)C(O)(c1ccccc1)c1ccccc1OC (stereo not drawn)	> 100 µM
